Recorded values, source patent US20240132624A1.

# EXPERIMENTAL SYSTEM: T1, human FcRn/b2M (human, UniProt P61769 21-119, biotinylated)
# T1 construct: bought recombinant biotinylated protein (ACRO FCM-H82W4 or Immunitrack ITF01); also called hFcRn; hFcRn/hb2M
# T1 sequence (chain, as listed by the source limits assumed, chain 1 of 2): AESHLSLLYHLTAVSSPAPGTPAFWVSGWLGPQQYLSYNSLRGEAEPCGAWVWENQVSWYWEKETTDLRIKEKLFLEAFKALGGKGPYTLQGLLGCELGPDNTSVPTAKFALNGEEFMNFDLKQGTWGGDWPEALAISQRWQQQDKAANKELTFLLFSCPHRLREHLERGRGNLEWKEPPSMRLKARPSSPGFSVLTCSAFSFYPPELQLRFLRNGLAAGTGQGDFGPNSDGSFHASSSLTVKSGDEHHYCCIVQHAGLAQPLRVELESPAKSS
# T1 sequence (P61769 21-119 limits assumed, chain 2 of 2): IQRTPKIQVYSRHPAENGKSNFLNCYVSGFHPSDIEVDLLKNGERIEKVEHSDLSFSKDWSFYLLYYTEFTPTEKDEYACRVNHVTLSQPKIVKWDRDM
# TEST DETAILS: SPR off-rate; pH 7.4 vs pH 6.0;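 further: surface plasmon resonance with diluted periplasmic extracts flowed over ligand surfaces, 120 s association and 600–3600 s dissociation at 25 °C, running buffer containing 150 mM NaCl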
Give Y when the value for kd ratio pH 7.4/6.0 is at least 50. Give N when it is less.

QUERY: Please tell me: is the binder T0263018B11 W100cG (VHH, name in Kabat numbering, FLAG3-His6 tagged) VHH: EVQLVESGGGVVQPGGSLRLSCAASGFTFSSYAMYWVRQAPGKGLEWVSAISSGGGSTDYADSVKGRFTISRDNSKNTLYLQMNSLRPEDTALYYCAADTLYTSLTGYSYWGQGTLVTVSS at or over 50 in terms of kd ratio pH 7.4/6.0?
RESULT: N

QUERY: Please tell me: is the binder T0263018B11 S52aG (VHH, name in Kabat numbering, FLAG3-His6 tagged) VHH: EVQLVESGGGVVQPGGSLRLSCAASGFTFSSYAMYWVRQAPGKGLEWVSAISGGGGSTDYADSVKGRFTISRDNSKNTLYLQMNSLRPEDTALYYCAADTLYTSLTWYSYWGQGTLVTVSS at or over 50 in terms of kd ratio pH 7.4/6.0?
RESULT: N

QUERY: Please tell me: is the binder T0263018B11 W100cL (VHH, name in Kabat numbering, FLAG3-His6 tagged) VHH: EVQLVESGGGVVQPGGSLRLSCAASGFTFSSYAMYWVRQAPGKGLEWVSAISSGGGSTDYADSVKGRFTISRDNSKNTLYLQMNSLRPEDTALYYCAADTLYTSLTLYSYWGQGTLVTVSS at or over 50 in terms of kd ratio pH 7.4/6.0?
RESULT: Y

QUERY: Please tell me: is the binder T0263018B11 G26H (VHH, name in Kabat numbering, FLAG3-His6 tagged) VHH: EVQLVESGGGVVQPGGSLRLSCAASHFTFSSYAMYWVRQAPGKGLEWVSAISSGGGSTDYADSVKGRFTISRDNSKNTLYLQMNSLRPEDTALYYCAADTLYTSLTWYSYWGQGTLVTVSS at or over 50 in terms of kd ratio pH 7.4/6.0?
RESULT: Y

QUERY: Please tell me: is the binder T0263018B11 D58V (VHH, name in Kabat numbering, FLAG3-His6 tagged) VHH: EVQLVESGGGVVQPGGSLRLSCAASGFTFSSYAMYWVRQAPGKGLEWVSAISSGGGSTVYADSVKGRFTISRDNSKNTLYLQMNSLRPEDTALYYCAADTLYTSLTWYSYWGQGTLVTVSS at or over 50 in terms of kd ratio pH 7.4/6.0?
RESULT: N

QUERY: Please tell me: is the binder T0263018B11 T28I (VHH, name in Kabat numbering, FLAG3-His6 tagged) VHH: EVQLVESGGGVVQPGGSLRLSCAASGFIFSSYAMYWVRQAPGKGLEWVSAISSGGGSTDYADSVKGRFTISRDNSKNTLYLQMNSLRPEDTALYYCAADTLYTSLTWYSYWGQGTLVTVSS at or over 50 in terms of kd ratio pH 7.4/6.0?
RESULT: N

QUERY: Please tell me: is the binder T0263018B11 S52G (VHH, name in Kabat numbering, FLAG3-His6 tagged) VHH: EVQLVESGGGVVQPGGSLRLSCAASGFTFSSYAMYWVRQAPGKGLEWVSAIGSGGGSTDYADSVKGRFTISRDNSKNTLYLQMNSLRPEDTALYYCAADTLYTSLTWYSYWGQGTLVTVSS at or over 50 in terms of kd ratio pH 7.4/6.0?
RESULT: N

QUERY: Please tell me: is the binder T0263018B11 S56T (VHH, name in Kabat numbering, FLAG3-His6 tagged) VHH: EVQLVESGGGVVQPGGSLRLSCAASGFTFSSYAMYWVRQAPGKGLEWVSAISSGGGTTDYADSVKGRFTISRDNSKNTLYLQMNSLRPEDTALYYCAADTLYTSLTWYSYWGQGTLVTVSS at or over 50 in terms of kd ratio pH 7.4/6.0?
RESULT: N

QUERY: Please tell me: is the binder T0263018B11 S30E (VHH, name in Kabat numbering, FLAG3-His6 tagged) VHH: EVQLVESGGGVVQPGGSLRLSCAASGFTFESYAMYWVRQAPGKGLEWVSAISSGGGSTDYADSVKGRFTISRDNSKNTLYLQMNSLRPEDTALYYCAADTLYTSLTWYSYWGQGTLVTVSS at or over 50 in terms of kd ratio pH 7.4/6.0?
RESULT: N

QUERY: Please tell me: is the binder T0263018B11 F29H (VHH, name in Kabat numbering, FLAG3-His6 tagged) VHH: EVQLVESGGGVVQPGGSLRLSCAASGFTHSSYAMYWVRQAPGKGLEWVSAISSGGGSTDYADSVKGRFTISRDNSKNTLYLQMNSLRPEDTALYYCAADTLYTSLTWYSYWGQGTLVTVSS at or over 50 in terms of kd ratio pH 7.4/6.0?
RESULT: N

QUERY: Please tell me: is the binder T0263018B11 T57L (VHH, name in Kabat numbering, FLAG3-His6 tagged) VHH: EVQLVESGGGVVQPGGSLRLSCAASGFTFSSYAMYWVRQAPGKGLEWVSAISSGGGSLDYADSVKGRFTISRDNSKNTLYLQMNSLRPEDTALYYCAADTLYTSLTWYSYWGQGTLVTVSS at or over 50 in terms of kd ratio pH 7.4/6.0?
RESULT: N

QUERY: Please tell me: is the binder T0263018B11 S31T (VHH, name in Kabat numbering, FLAG3-His6 tagged) VHH: EVQLVESGGGVVQPGGSLRLSCAASGFTFSTYAMYWVRQAPGKGLEWVSAISSGGGSTDYADSVKGRFTISRDNSKNTLYLQMNSLRPEDTALYYCAADTLYTSLTWYSYWGQGTLVTVSS at or over 50 in terms of kd ratio pH 7.4/6.0?
RESULT: N

QUERY: Please tell me: is the binder T0263018B11 S101E (VHH, name in Kabat numbering, FLAG3-His6 tagged) VHH: EVQLVESGGGVVQPGGSLRLSCAASGFTFSSYAMYWVRQAPGKGLEWVSAISSGGGSTDYADSVKGRFTISRDNSKNTLYLQMNSLRPEDTALYYCAADTLYTSLTWYEYWGQGTLVTVSS at or over 50 in terms of kd ratio pH 7.4/6.0?
RESULT: N
